Values from patent US8178873B2

Exercise: for every item that follows, state its recorded melting point.
One number for each entry, in °C.

[[record]]
chem_smiles = "CCCc1ccc(-c2ccc3c(C#C[Si](C(C)C)(C(C)C)C(C)C)c4cc(-c5ccc(CCC)s5)ccc4c(C#C[Si](C(C)C)(C(C)C)C(C)C)c3c2)s1"
uom = "°C"
endpoint_value = 208.3

[[record]]
chem_smiles = "CCCCCCc1ccsc1-c1ccc2c(C#C[Si](C(C)C)(C(C)C)C(C)C)c3cc(-c4sccc4CCCCCC)ccc3c(C#C[Si](C(C)C)(C(C)C)C(C)C)c2c1"
uom = "°C"
endpoint_value = 141.8

[[record]]
chem_smiles = "CC(C)[Si](C#Cc1c2ccc(-c3cccs3)cc2c(C#C[Si](C(C)C)(C(C)C)C(C)C)c2ccc(-c3cccs3)cc12)(C(C)C)C(C)C"
uom = "°C"
endpoint_value = 293


Could you now look at the following molecule, please?
# input Item Cc1ccc(-c2ccc3c(C#C[Si](C(C)C)(C(C)C)C(C)C)c4cc(-c5ccc(C)s5)ccc4c(C#C[Si](C(C)C)(C(C)C)C(C)C)c3c2)s1 has what recorded melting point?
# output 333
